assayed-target: human IDO1 (Homo sapiens)
Sequence (P14902 whole entry): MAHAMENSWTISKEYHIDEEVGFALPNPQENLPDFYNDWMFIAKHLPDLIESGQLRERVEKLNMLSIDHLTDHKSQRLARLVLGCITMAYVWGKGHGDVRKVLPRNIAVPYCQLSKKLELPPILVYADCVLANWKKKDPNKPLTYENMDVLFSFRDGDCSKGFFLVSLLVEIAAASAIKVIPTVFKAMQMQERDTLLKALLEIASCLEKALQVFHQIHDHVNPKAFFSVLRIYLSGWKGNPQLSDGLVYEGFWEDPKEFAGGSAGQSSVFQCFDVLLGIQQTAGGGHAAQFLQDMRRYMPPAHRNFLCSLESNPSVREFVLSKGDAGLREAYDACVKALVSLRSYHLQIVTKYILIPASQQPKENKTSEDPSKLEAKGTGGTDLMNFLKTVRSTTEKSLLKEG
test-details: HEK293 cells stably expressing human IDO1, IDO inhibition assay (kynurenine, Ehrlich reagent, absorbance 490 nm)
stated-conditions: 20 hours incubation, 500 nM reference standard = 100% inhibition, read-out: HEK Human IDO-1 Biological Activity (IC50)
Examples of molecules with documented IC50 follow.

Before answering, review these 6 worked examples.
molecule: CCC(C(=O)Nc1ccc(Cl)cc1)[C@H]1CC[C@H](Oc2ccncc2C(F)(F)F)CC1 (single isomer, unassigned) [Example 305a]
assayed-target: human IDO1 (Homo sapiens)
reported-measurement: > 250 nM

molecule: CC(C(=O)Nc1ccc(Cl)cc1)C1CCC(c2ccnc(C(F)(F)F)c2)CC1 (single isomer, unassigned) [Example 312a]
assayed-target: human IDO1 (Homo sapiens)
reported-measurement: < 250 nM

molecule: Cc1nccc(C2CCC(C(C)C(=O)Nc3ccc(Cl)cc3)CC2)c1C (single isomer, unassigned) [Example 311a]
assayed-target: human IDO1 (Homo sapiens)
reported-measurement: < 50 nM

molecule: CC(C(=O)Nc1ccc(Cl)cc1)C1CCC(c2ccnnc2)CC1 (single isomer, unassigned) [Example 316d]
assayed-target: human IDO1 (Homo sapiens)
reported-measurement: > 250 nM

molecule: CCC(C(=O)Nc1ccc(Cl)cc1)[C@H]1CC[C@@H](Oc2ccncc2)CC1 (mixture of isomers) [Example 306]
assayed-target: human IDO1 (Homo sapiens)
reported-measurement: < 50 nM

molecule: Cc1nccc(C2CCC(C(C)C(=O)Nc3ccc(Cl)cc3)CC2)c1C (single isomer, unassigned) [Example 311f]
assayed-target: human IDO1 (Homo sapiens)
reported-measurement: < 250 nM

Quick one: IC50 of COc1cc(C2CCC(C(C)C(=O)Nc3ccc(Cl)cc3)CC2)ccn1 (stereo not drawn) [Example 307a] ?
< 50 nM

// same read-out, input: CC(C(=O)Nc1ccc(Cl)cc1)C1CCC(c2ccncc2F)CC1 (single isomer, unassigned) [Example 318e]
< 50 nM

// same read-out, input: Cc1c(C2CCC(C(C)C(=O)Nc3ccc(Cl)cc3)CC2)ccnc1F (single isomer, unassigned) [Example 310d]
< 50 nM

// same read-out, input: CCC(C(=O)Nc1ccc(Cl)cc1)[C@H]1CC[C@H](Oc2ccncc2C(F)(F)F)CC1 (single isomer, unassigned) [Example 305b]
< 50 nM

// same read-out, input: CC(C(=O)Nc1ccc(Cl)cc1)C1CCC(c2ccnc(C(F)(F)F)c2)CC1 (single isomer, unassigned) [Example 312d]
< 250 nM

// same read-out, input: CC(C(=O)Nc1ccc(Cl)cc1)C1CCC(c2cc(-c3ccc(F)cc3)ncn2)CC1 (stereo not drawn) [Example 314a]
< 250 nM

// same read-out, input: Cc1cc(C2CCC(C(C)C(=O)Nc3ccc(Cl)cc3)CC2)ccn1 (single isomer, unassigned) [Example 309b]
< 50 nM

// same read-out, input: CC(C(=O)Nc1ccc(Cl)cc1)C1CCC(c2ccnc(C(F)(F)F)c2)CC1 (single isomer, unassigned) [Example 312b]
< 50 nM

// same read-out, input: COc1cc([C@H]2CC[C@@H]([C@H](C)C(=O)Nc3ccc(Cl)cc3)CC2)ccn1 (single isomer, unassigned) [Example 307c]
< 50 nM

// same read-out, input: Cc1c(C2CCC(C(C)C(=O)Nc3ccc(Cl)cc3)CC2)ccnc1F (single isomer, unassigned) [Example 310a]
< 50 nM

// same read-out, input: Cc1cnccc1C1CCC(C(C)C(=O)Nc2ccc(Cl)cc2)CC1 (single isomer, unassigned) [Example 313d]
< 50 nM

// same read-out, input: Cc1nccc(C2CCC(C(C)C(=O)Nc3ccc(Cl)cc3)CC2)c1C (single isomer, unassigned) [Example 311d]
< 50 nM

// same read-out, input: CCC(C(=O)Nc1ccc(Cl)cc1)[C@H]1CC[C@H](Oc2ccncc2C(F)(F)F)CC1 (mixture of isomers) [Example 305]
> 250 nM

// same read-out, input: Cc1c(C2CCC(C(C)C(=O)Nc3ccc(Cl)cc3)CC2)ccnc1F (single isomer, unassigned) [Example 310b]
< 50 nM

// same read-out, input: Cc1cnccc1C1CCC(C(C)C(=O)Nc2ccc(Cl)cc2)CC1 (single isomer, unassigned) [Example 313b]
< 50 nM

// same read-out, input: Cc1cc(C2CCC(C(C)C(=O)Nc3ccc(Cl)cc3)CC2)ccn1 (single isomer, unassigned) [Example 309c]
> 250 nM

// same read-out, input: CC(C(=O)Nc1ccc(Cl)cc1)C1CCC(c2cc(-c3ccc(F)cc3)ncn2)CC1 (single isomer, unassigned) [Example 314b]
< 250 nM

// same read-out, input: CC(C(=O)Nc1ccc(Cl)cc1)C1CCC(c2ccncc2F)CC1 (single isomer, unassigned) [Example 318b]
< 50 nM

// same read-out, input: Cc1cnccc1C1CCC(C(C)C(=O)Nc2ccc(Cl)cc2)CC1 (single isomer, unassigned) [Example 313c]
> 250 nM

// same read-out, input: CC(C(=O)Nc1ccc(Cl)cc1)C1CCC(c2cccc(-c3ccccc3)c2)CC1 (single isomer, unassigned) [Example 317b]
< 50 nM

// same read-out, input: CC(C(=O)Nc1ccc(Cl)cc1)C1CCC(c2ccncc2F)CC1 (single isomer, unassigned) [Example 318d]
< 250 nM
